Experiment: RP, Agilent ZORBAX Eclipse Plus C18, 50 × 4.6 mm, 1.8 µm, 0.5 mL/min, estimated dead time 1.1 min; A: water + 0.1% formic acid; B: acetonitrile + 0.1% formic acid; gradient (min/%B) 0/10 3/10 25/100 28/100
Settings: stereoisomer not certain
recordedEndpoint: LC retention time (min)
// units = min; emit number, no label

-- ask Need LC retention time of C#CC1(O)CCC2C3CCc4cc(O)ccc4C3CCC21C (configuration not stated) , thanks.
-- reply 14.3

-- ask Recorded LC retention time for CCCCN(CCCC)N=O , please?
-- reply 15.9

-- ask Give the measured LC retention time of CCCOC(=O)NCCCN(C)C .
-- reply 2.3

-- ask // query LC retention time value for entry CNC(=C[N+](=O)[O-])NCCSCc1ccc(CN(C)C)o1
-- reply 2.03

-- ask Given CCC(C)c1ccccc1OC(=O)NC (configuration not stated) , state its recorded LC retention time.
-- reply 15

-- ask Please report the recorded LC retention time for CCOP(=S)(OCC)SCn1nnc2ccccc2c1=O .
-- reply 17.4

-- ask Reported LC retention time, compound COC(=O)c1ccc(C)cc1C1=NC(C)(C(C)C)C(=O)N1 (configuration not stated) : ____
-- reply 9.12

-- ask Which LC retention time value belongs to CCNC(C)Cc1ccc2c(c1)OCO2 (configuration not stated) ?
-- reply 6.16

-- ask May I ask what LC retention time has been recorded for CCOP(=O)(OCC)OCC ?
-- reply 9.03

-- ask Look up LC retention time for this compound: CCC(C)C1OC2(C=CC1C)CC1CC(CC=C(C)C(OC3CC(OC)C(OC4CC(OC)C(NC(C)=O)C(C)O4)C(C)O3)C(C)C=CC=C3COC4C(O)C(C)=CC(C(=O)O1)C34O)O2 (configuration not stated)
-- reply 21.2

-- ask // lookup LC retention time for C=C(C)C1Cc2c(ccc3c2OC2COc4cc(OC)c(OC)cc4C2C3=O)O1 (configuration not stated)
-- reply 17.2

-- ask Tell me the measured LC retention time of CN1CCCC1c1cccnc1 (configuration not stated) , please.
-- reply 1.36

----------
Assay: RP, Agilent ZORBAX Eclipse Plus C18, 50 × 4.6 mm, 1.8 µm, 0.5 mL/min, estimated dead time 1.1 min; A: water + 0.1% formic acid; B: acetonitrile + 0.1% formic acid; gradient (min/%B) 0/10 3/10 25/100 28/100
Conditions: stereoisomer not certain
Would you kindly list LC retention time for each of these compounds?
Reply with just the number (in min).

-- ask What value of measured LC retention time is listed for Nc1ccc(-c2ccc(N)cc2)cc1 ?
-- reply 1.36

-- ask Dear colleague, I am looking for the recorded LC retention time of the following compound: CCC1OC(=O)C(C)C(OC2CC(C)(OC)C(O)C(C)O2)C(C)C(OC2OC(C)CC(N(C)C)C2O)C(C)(OC)CC(C)C(=O)C(C)C(O)C1(C)O (stereo not given)
-- reply 11.1

-- ask Report LC retention time for CCOP(=S)(OCC)Oc1cnc2ccccc2n1 please.
-- reply 18.2

-- ask For the compound shown here, CNC(=O)C=C(C)OP(=O)(OC)OC , give the reported LC retention time.
-- reply 5.55

-- ask LC retention time lookup needed for Cc1nnc(-c2ccccc2)c(=O)n1N , thanks.
-- reply 7.57

-- ask Param item = CSC(C)=NOC(=O)N(C)SN(C)C(=O)ON=C(C)SC ; retrieve measured LC retention time.
-- reply 11.8

-- ask Fill blank: measured LC retention time of the compound Cc1c(N)c(=O)n(-c2ccccc2)n1C is ____.
-- reply 2.39

-- ask Which LC retention time reading was recorded for the compound COP(=S)(OC)Oc1ccc(Sc2ccc(OP(=S)(OC)OC)cc2)cc1 ?
-- reply 21.2

-- ask Which LC retention time value is on record for CCCCCc1cc(O)c2c(c1)OC(C)(C)C1CCC(C)=CC21 (stereo not given) ?
-- reply 23.6

-- ask Entry CC(N)Cc1ccccc1 (stereo not given) : reported LC retention time = ?
-- reply 3.82

-- ask Need LC retention time of CCCN(CCC)c1c([N+](=O)[O-])cc(S(N)(=O)=O)cc1[N+](=O)[O-] , thanks.
-- reply 17

-- ask Reported LC retention time, compound Cc1cc(=O)n(-c2ccccc2)n1C : ____
-- reply 6.97

-- ask Entry under review: Nc1ccc(S(=O)(=O)Nc2ncccn2)cc1 . Reported LC retention time?
-- reply 4.16

-- ask What does the data say about its LC retention time? Entry: Cc1ccc(C(C)(C)C)c(O)c1C(=O)O
-- reply 14.2

-- ask Entry O=NN1CCOCC1 has what LC retention time?
-- reply 2.21

-- ask Need LC retention time, item CC(=O)OC1C=CC2C3Cc4ccc(O)c5c4C2(CCN3C)C1O5 (stereo not given)
-- reply 4.94

-- ask Bench note: what LC retention time did CN(C)C(=O)Nc1ccccc1 show?
-- reply 7.72

-- ask For CNC(=O)Oc1cccc2c1OC(C)(C)C2O (stereo not given) , what is its reported LC retention time?
-- reply 7.87

-- ask Bench note: what LC retention time did CCOC(=O)CCN(SN(C)C(=O)Oc1cccc2c1OC(C)(C)C2)C(C)C show?
-- reply 20.8

-- ask Given the entry CCCCN(CC)C(=O)SCCC , report its measured LC retention time.
-- reply 19.6

-- ask Which value of LC retention time has been reported for CN1C(=O)CCC1c1cccnc1 (stereo not given) in the records?
-- reply 1.35

-- ask Tell me the measured LC retention time of Cc1onc(-c2ccccc2)c1C(=O)NC1C(=O)N2C1SC(C)(C)C2C(=O)O (stereo not given) , please.
-- reply 12.8

-- ask What does the data say about its LC retention time? Entry: CC(C)(C)c1ccc(CCOc2ncnc3ccccc23)cc1
-- reply 22

-- ask Fill in: LC retention time of CCCC1CC(C(=O)NC(C(C)O)C2OC(SC)C(O)C(O)C2O)N(C)C1 (stereo not given) is ___
-- reply 3.66

-- ask For the compound shown here, CCN(CC)N=O , give the reported LC retention time.
-- reply 15.9

-- ask Fill in: LC retention time of CC(C)C1(C)N=C(c2ncccc2C(=O)O)NC1=O (stereo not given) is ___
-- reply 16.5

-- ask Need LC retention time, item c1ccc2[nH]c(-c3cscn3)nc2c1
-- reply 4.54

-- ask I am curious: what LC retention time value has been reported for COP(=S)(OC)Oc1ccc([N+](=O)[O-])c(C)c1 ?
-- reply 17.2

-- ask State the recorded LC retention time for this entry: CCOc1ccc2c(c1)C(C)=CC(C)(C)N2
-- reply 11.8

-- ask Form field: reported LC retention time of c1ccc(Nc2ccccc2)cc1
-- reply 17.2

-- ask Please report the recorded LC retention time for CC(C)(C)NCC(O)COc1nsnc1N1CCOCC1 (stereo not given) .
-- reply 6.87

-- ask Quick check: LC retention time of CCOC(=O)C(CCc1ccccc1)NC(C)C(=O)N1CCCC1C(=O)O (stereo not given) ?
-- reply 9.21

-- ask What value of LC retention time has been reported for the following compound? COc1ccc(Oc2ccc(NC(=O)N(C)C)cc2)cc1
-- reply 13.3

-- ask Would you kindly share the measured LC retention time for CCCCc1c(C)nc(NCC)nc1OS(=O)(=O)N(C)C ?
-- reply 14.4

-- ask Which LC retention time value is on record for Cc1ccc(C)c(OCCCC(C)(C)C(=O)O)c1 ?
-- reply 18.1

-- ask Request the reported LC retention time associated with CN=C(NC#N)NCCSCc1nc[nH]c1C
-- reply 1.83

-- ask Which LC retention time is listed for CCOC(=O)CC(SP(=O)(OC)OC)C(=O)OCC (stereo not given) ?
-- reply 11.8

-- ask # query: LC retention time of entry CCCSc1ccc2nc(NC(=O)OC)[nH]c2c1
-- reply 10.5

-- ask Could you tell me which LC retention time is on file for CCN(CC)c1nc(C)cc(OP(=S)(OC)OC)n1 ?
-- reply 19

-- ask Recorded LC retention time of CS(=O)(=O)Nc1nc2cc(-c3ccc([N+](=O)[O-])cc3)c([N+](=O)[O-])cc2[nH]c1=O , please.
-- reply 11.5

----------
Please respond with reported LC retention time for every item in the list.
Test: RP, Agilent ZORBAX Eclipse Plus C18, 50 × 4.6 mm, 1.8 µm, 0.5 mL/min, estimated dead time 1.1 min; A: water + 0.1% formic acid; B: acetonitrile + 0.1% formic acid; gradient (min/%B) 0/10 3/10 25/100 28/100
Settings: stereoisomer not certain
Could you give me the number in min? Just the number is fine.

-- ask LC retention time for COc1cc(NS(=O)(=O)c2ccc(N)cc2)nc(OC)n1 ?
-- reply 10.4

-- ask Request the reported LC retention time associated with Cc1cc(NS(=O)(=O)c2ccc(N)cc2)no1
-- reply 9.06

-- ask Please report the recorded LC retention time for COP(=S)(OC)Oc1ccc(S(=O)(=O)N(C)C)cc1 .
-- reply 15.3

-- ask For O=C1CCc2cccc3c2N1CC3 , what is its reported LC retention time?
-- reply 10.2

-- ask Given the molecule Cn1c(=O)c2c(ncn2C)n(C)c1=O , what is its reported LC retention time?
-- reply 5.08

-- ask # LC retention time lookup, item CCOc1ccc(NC(=O)OC(C)C)cc1OCC
-- reply 15.3

-- ask Fill in: LC retention time of CC(=O)Nc1ccc(O)cc1 is ___
-- reply 2.66

-- ask Recorded LC retention time of CC(Cc1ccc(C(C)(C)C)cc1)CN1CCCCC1 (centres undefined) , please.
-- reply 12.5

-- ask Which LC retention time value belongs to COc1cccc(C(=O)NN(C(=O)c2cc(C)cc(C)c2)C(C)(C)C)c1C ?
-- reply 16.6

-- ask For the molecule COC1C(O)CC(=O)OC(C)CC=CC=CC(OC2CCC(N(C)C)C(C)O2)C(C)CC(CC=O)C1OC1OC(C)C(OC2CC(C)(O)C(O)C(C)O2)C(N(C)C)C1O (centres undefined) , what LC retention time is on record?
-- reply 7.59

-- ask Give its LC retention time value. Item: C=C(C)C1CCC(C)=CC1c1c(O)cc(CCCCC)cc1O (centres undefined)
-- reply 21.2

-- ask Given CCSCc1ccccc1OC(=O)NC , state its recorded LC retention time.
-- reply 13.1

-- ask Name the reported LC retention time value associated with the molecule CCC(C)(CC)c1cc(NC(=O)c2c(OC)cccc2OC)on1
-- reply 16.5

-- ask What measured LC retention time goes with CC(C)N1C(=O)c2ccccc2NS1(=O)=O ?
-- reply 12.7
